biological target: PRMT5 (Homo sapiens); construct: His-tag; made in house; host or cells: Sf9 insect cells (Bac-to-Bac baculovirus); test: scintillation proximity assay (SPA) of PRMT5 methyltransferase activity; assay type: biochemical; conditions: SPA, concentration-dependent; 0.5 μM H4(1–20)K20biotin, 0.5 μM 3H-SAM; read-out: IC50 PRMT5 (converted)
Sequence (O14744 whole entry): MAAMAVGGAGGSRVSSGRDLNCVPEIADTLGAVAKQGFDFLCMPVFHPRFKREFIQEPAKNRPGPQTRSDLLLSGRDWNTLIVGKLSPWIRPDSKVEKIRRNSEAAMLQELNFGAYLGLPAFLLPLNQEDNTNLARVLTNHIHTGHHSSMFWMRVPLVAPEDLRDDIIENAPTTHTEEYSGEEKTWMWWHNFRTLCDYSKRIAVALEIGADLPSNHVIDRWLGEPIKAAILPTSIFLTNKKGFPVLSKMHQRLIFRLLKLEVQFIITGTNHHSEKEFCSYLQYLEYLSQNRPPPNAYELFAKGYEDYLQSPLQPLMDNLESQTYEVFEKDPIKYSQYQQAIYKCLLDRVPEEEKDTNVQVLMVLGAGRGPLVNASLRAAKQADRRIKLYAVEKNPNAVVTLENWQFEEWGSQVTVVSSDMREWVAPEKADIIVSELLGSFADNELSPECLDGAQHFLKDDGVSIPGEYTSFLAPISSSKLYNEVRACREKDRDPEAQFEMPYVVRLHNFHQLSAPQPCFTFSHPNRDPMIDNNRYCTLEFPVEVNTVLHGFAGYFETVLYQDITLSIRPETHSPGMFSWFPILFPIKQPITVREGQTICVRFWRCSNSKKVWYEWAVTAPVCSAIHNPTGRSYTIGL
Sequence (Q9BQA1 whole entry partner): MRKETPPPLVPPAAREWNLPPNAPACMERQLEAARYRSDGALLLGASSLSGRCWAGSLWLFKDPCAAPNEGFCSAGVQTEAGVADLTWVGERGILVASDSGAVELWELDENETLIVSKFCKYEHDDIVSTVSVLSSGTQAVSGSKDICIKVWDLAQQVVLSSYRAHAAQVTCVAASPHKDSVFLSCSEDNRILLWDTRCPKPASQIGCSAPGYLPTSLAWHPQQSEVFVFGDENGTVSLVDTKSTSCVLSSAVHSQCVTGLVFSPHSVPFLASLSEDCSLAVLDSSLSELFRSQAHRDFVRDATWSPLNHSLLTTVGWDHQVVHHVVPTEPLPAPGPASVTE
PROPERTY NAME: IC50 (µM)
# output: bare number, implied unit µM

So what's the measured IC50 for this one? "Nc1ncnc2c1ncn2[C@@H]1O[C@H](Cn2cc(CCO)nn2)[C@@H](O)[C@H]1O"
195

So what's the measured IC50 for this one? "Nc1ncnc2c1ncn2[C@@H]1O[C@H](Cn2cc(C[C@H](N)C(=O)O)nn2)[C@@H](O)[C@H]1O"
18.9
